# test.name: yeast display, Sf9 membrane polyspecificity reagent, FACS + sequencing; frameworks hold sequencing errors
value.kind: polyreactivity (PSR sort gate)

Request: Query (sequence): QVQLVESGGGLVQAGGSLRLSCAASGSIFNRYTMGWYRQAPGKEREFVAAIRNSGSRTYYADSVKRRFTISRDNAKNTVYLQMNSLKPEDTAVYYCAADGPLNSSESYYWGQGTQVTVSS ; field requested: polyreactivity (PSR sort gate)
Result: low polyreactivity

Request: Query (sequence): QVQLVESGGGLVQAGGSLRLSCAASGGTFDSNAMGWYRQAPGKERELVAAISSGGSTYYADSVKGRFTISRDNAKNTVYLQMNSLKPEDTAVYYCAADSSGGASAPMDYWGQGTQVTVSS ; field requested: polyreactivity (PSR sort gate)
Result: low polyreactivity

Request: Query (sequence): QVQLVESGGGLVQAGGSLRLSCAASGRTFGTNALGWYRQAPGKERELVASIDLSADSTYYADSVKGRFTISRDNAKKTVYLQMNSLKPEDTAVYYCNKDGYPWPPNLDYWGQGTQVTVSS ; field requested: polyreactivity (PSR sort gate)
Result: low polyreactivity

Request: Query (sequence): QVQLVESGGGLVQAGGSLRLSCAASGSIFEGYVMGWYRQAPGKERELVATISFSGGSTYYADSVKGRFTISRDNAKNTVYLQMTSLKPEDTAVYFCNALVYHTKGDYGYWGQGTQVTVSS ; field requested: polyreactivity (PSR sort gate)
Result: low polyreactivity

Request: Query (sequence): QVQLVESGGGLVQAGGRLRISCAASGRTFSHNTMGWYRQAPGKERELVAAITGSGASTYYADSVKGRFTISRDNAKNTVYLQMNSLKPEDTAVDYCAKVSRQSWDEYDTWGQGTQVTVSS ; field requested: polyreactivity (PSR sort gate)
Result: low polyreactivity

---
Request: Query (sequence): QVQLVESGGGLVQAGGSLRLSCAASGGIFRFNAMGWYRQAPGKERELVAGISSTYYADSVKGRFTISRDNAKNTVYLQMNSLKPEDTAVYYCAAAGPEEHGYTYPGNNQMEYWGQGTQVTVSS ; field requested: polyreactivity (PSR sort gate)
Result: low polyreactivity

Request: Query (sequence): QVQLVESGGGLVQAGGSLRFSCAASGRIFGGNTMGWYRQAPGKERELVATIRSGDSTYYADSVKGRFTISRDNAKNTVYLQMNSLKPEDTAVYYCGYDYWGQGTQVTVSS ; field requested: polyreactivity (PSR sort gate)
Result: low polyreactivity

Request: Query (sequence): QVQLVESGGGLVQAGGSLRLSCAASGSIFWGNAMGWYRQAPGKERELVAAIDWSGGSTYYADSVKGRFTISRDNAKNTVYLQMHSLKPEDTAVYYCAASGRYDYDYWGQGTQVTVSS ; field requested: polyreactivity (PSR sort gate)
Result: low polyreactivity

Request: Query (sequence): QVQLVESGGGLVQAGGSLRLSCAASGNTFVSNARGWYSQAPGKEREWVAAIDSGGSTNYADSVKGRFTISRDNAKNTDYLQMNSLKPEDTAVYYCNRTSVYYYYWGQGTQVTVSS ; field requested: polyreactivity (PSR sort gate)
Result: low polyreactivity

Request: Query (sequence): QDQLVDSGGGLVQAGGSLRLSCAASGRTFSPNTMGWYRQAPGKEREFVAAITASGDSTYYADSVKGRFTISRDNEKNTVYLQMNSLKPEDTAVYYCATDSNWYWGFNYWGQGTQVTVSS ; field requested: polyreactivity (PSR sort gate)
Result: low polyreactivity

====

# test.name: yeast display, Sf9 membrane polyspecificity reagent, FACS + sequencing; frameworks hold sequencing errors
value.kind: polyreactivity (PSR sort gate)

Use the examples below as a reference point.
Request: Query (sequence): QVQLVESGGGLVQAGGSLRLSCAASGSIFESYAMGLYRQAPGKERELVAALTSSGDSTYYADSVKGRFTISRDNAKNTVYLQMYSLNPEDTAVDYCAKRVPTYISTADWVSRYDYWGQGTQVTVSS ; field requested: polyreactivity (PSR sort gate)
Result: low polyreactivity

Request: Query (sequence): QVQLVESGGGLVQAGGSLRLSCAASGRTFASNAMGWYRQAPGKERELVAAITRGGSTYYADSVKGRFTISRDNAKNTVYLQMNSLKPEDTAVYYCAADRWWYQNEVDYWGQGTQVTVSS ; field requested: polyreactivity (PSR sort gate)
Result: low polyreactivity

Request: Query (sequence): QVQLVESGGGLVQAGVSLRLSCAASMGWYRQAPGKERELVAAITRGGTTYYADSVQGRFTISRDNAKNTVYLQMNSLKPEDTAVYYGAKAGPGFLYDHWGQGTQVTVSS ; field requested: polyreactivity (PSR sort gate)
Result: high polyreactivity

Request: Query (sequence): QVQLVESGGGLVQAGGSLRLRCASSGGIFVPYAMGWYRQAPGKERELVAGITSGGSTNYADSVKGRFSISRDNAKNTVYLQMNRLKPEDTAVYYCAARRRPGGRYKSRVWYDYWGLGTQVTVSS ; field requested: polyreactivity (PSR sort gate)
Result: high polyreactivity

Request: Query (sequence): QVQLVESGGGLVQAGGSLRLSCAASGFTFERNTMGWYRQAPGKERELVATITRRGTSTYYADSVKGRFTISRDNAKNTVYLQMNSLKPEDTAVYYCARGQYSHRSQAGMDYWGQGTQVTVSS ; field requested: polyreactivity (PSR sort gate)
Result: high polyreactivity

Request: Query (sequence): QVQLVESGGGLVQAGGSLRLSCAASGGIFVANAMGWYRQAPGKERELVAAISRSGGSTYYADSVKGRFTISRDNAKNTVYLQMNSLKPEDTAVYYCAAKSRRQYTVGLTSDYWGQGTQVTVSS ; field requested: polyreactivity (PSR sort gate)
Result: high polyreactivity

---
Request: Query (sequence): QVQLVESGGGLVQAGGSLRISCAASGFTFQYYAMGWYRQAPGKERELVATITTSGGNTYYADSVKGRFTISRDNEKNTVYLQMNCLNPEDTAVYYCAARRYRASSRGYGYWGQGTQVTVSS ; field requested: polyreactivity (PSR sort gate)
Result: high polyreactivity

Request: Query (sequence): QVQLVESGGGLVQAGGSLRLSCAASGSIFADYAMGWYRQAPGKERELVAVISRRGGTTYYADSVKGRFTISRDNAKNTVYLQMNSLKTEDTAVYYCAARRSFNEYDYWGQGSQVTVSS ; field requested: polyreactivity (PSR sort gate)
Result: high polyreactivity

Request: Query (sequence): QVQLVDSGGGLDQAGGSLRLSCASSGSSSNTMLWDGKDRRLGKKGSWSSTNYADSVKGRFTISRDNAKNTVYLQMNSLKPEDTAVYYCNAYHDYITEFNYWGQGTQVTVSS ; field requested: polyreactivity (PSR sort gate)
Result: low polyreactivity

Request: Query (sequence): QVQLVESGGGLVQARGSLRLSCAASGSTLSPYVMGWYRQAPGKERELVATISRSGGRTYYADSVKGRFTISRDNAKNTVYLQMNSLKPEDTAVYYCAARTYYWGALIVSYDYWGQGTQGTVSS ; field requested: polyreactivity (PSR sort gate)
Result: low polyreactivity

Request: Query (sequence): QVQLVESGGGLVQAGGSLRLSCADSGNTFYGYAMGWSRQSPGTERELVASITLSGDSTYYADSVKGRFTISRDNAKNTVYLQMNSLKPEDTAVYYCAGVYTYPLGYYHYTYDYWGQGTQVTVSS ; field requested: polyreactivity (PSR sort gate)
Result: low polyreactivity

Request: Query (sequence): QVQLVESGGGLVQAGGSLRLSCAASGSIFFVNAMGWYRQAPGKERELVAAITWNAGRTYYADSVKGRFTISRDNAKNTVYLQMNSLKPEDTAVYYCNARAYYSSAIYDYWGQGTQVTVSS ; field requested: polyreactivity (PSR sort gate)
Result: low polyreactivity

Request: Query (sequence): QVQLVESGGGLVQAGGSLRLSCAASGFTLDDYAMGWYRQAPGKEREWVAAITSGGTYADSVKGRFTISRDNAKNTVYLQMNSLKPEDTAVYYCNAGNNVVVDYDYWGQGTQVTVSS ; field requested: polyreactivity (PSR sort gate)
Result: low polyreactivity

Request: Query (sequence): QVQLVESGGGLVQAGGSLRLSCAASVSTFAPNAMGWYRQAPGKEMELVASIRRGGSTHYADSVKGRFTISRDNAKNTVYLQMNSLQPEDTAVYYCAAEFRDVSSNGYDYWGQGTQVTVSS ; field requested: polyreactivity (PSR sort gate)
Result: low polyreactivity

Request: Query (sequence): QVQLVESGGGLLQAGGSLRLICAASGSTFSTNAMGWYRQAPGKERELVAAISRSGGSTNYADSVKGRFTISRDNAKNTVYLQMNSLKPEDTAVYYCARYSYRGTNVRYDYWGQGTQVTVSS ; field requested: polyreactivity (PSR sort gate)
Result: high polyreactivity

Request: Query (sequence): QVQLVESAGGLVQEGGSLRVSCAASGRTFGRYAMGRYRQAPGKEREMVAAITVGGGSTYYADSVKGRFTISRDTAKNTVYLQMNSLKPEDTAVYYCNALHTYTYRYDYYYWGQGTQVTVSS ; field requested: polyreactivity (PSR sort gate)
Result: high polyreactivity

Request: Query (sequence): QVQLVESGGGLVQAGGSLRLSCAASGRTFPGYAMGWYRQAPGKEREVVAGISYRGGSTYYADSVKGRFTISRDNPKNTVYLQMNSLKPVDTAVYYCARDYSRHKGDYWGQGTQVTVSS ; field requested: polyreactivity (PSR sort gate)
Result: low polyreactivity

Request: Query (sequence): QVQLVESGGGLVQAGGSLRLSCAASGFIFRYYAMGWYRQAPGKERELVAAISSGGRTSYADSVKGRFTISRDNAKNTVYLQMNSLKPEDTAVYYCAADRWRGLFYYGKDYWGQGTQVTVSS ; field requested: polyreactivity (PSR sort gate)
Result: high polyreactivity

Request: Query (sequence): QFQLVESGGGLVQAGGSLRLSCAASGIIFYENNMGWYRQAPGKERELVAAINSGGSTYYADSVKGRFTISRDNAKNTVYLQMNSLKPEDTAVYYCDADDYSGLYYSSTYRYEYWGQGTQVTVSS ; field requested: polyreactivity (PSR sort gate)
Result: low polyreactivity

Request: Query (sequence): QVQLVESGGGLVHAGGSLSLSCAASGSIFGYYAKGWYRQAPGKERELVAAITVSGGSTYYADSVKGRFTISRDNAKNTDYLQLISLKPEDTAVYYCAADDIYGEYYYWGQGTQVTVSS ; field requested: polyreactivity (PSR sort gate)
Result: high polyreactivity

Request: Query (sequence): QVQLVESAGGLVQAGGSLRLSCAASGIIFSYYVMGWYRQAPGKERELVAAITTSGSRTYYADSVKGRFTISRDNAKITVYLQMNSLKPEVTSVYYCAAADAGLSVSSYRTYYYWGQGTQVTVSS ; field requested: polyreactivity (PSR sort gate)
Result: high polyreactivity
